Data origin: ChEMBL document CHEMBL1150480

Assay: Evaluation of ratio of Michaelis-Menten constant to that of kinetic constant against 2,6-sialyltransferase in presence of compound
Under this convention, y denotes Ratio strictly below 10 and n denotes Ratio at or above 10.

Here's what some known entries look like.
INSERT INTO measurements (compound, grouplabel) VALUES
  ('CC(=O)NC1C(O)CC(OP(=O)(O)OC[C@H]2OC(n3ccc(N)nc3=O)[C@H](O)[C@@H]2O)(C(=O)O)OC1[C@H](O)[C@H](O)CNC(=O)c1ccc(N=[N+]=[N-])cc1 (stereo not given in full)', 'n'),
  ('CC(=O)NC1C(O)CC(OP(=O)(O)OC[C@H]2OC(n3ccc(N)nc3=O)[C@H](O)[C@@H]2O)(C(=O)O)OC1[C@H](O)[C@H](O)CNC(=O)c1ccc(C(=O)c2ccccc2)cc1 (stereo not given in full)', 'n'),
  ('CC(=O)NC1C(O)CC(OP(=O)(O)OC[C@H]2OC(n3ccc(N)nc3=O)[C@H](O)[C@@H]2O)(C(=O)O)OC1[C@H](O)[C@H](O)CNC(=O)c1ccc(N=[N+]=[N-])cc1O (stereo not given in full)', 'n'),
  ('NCC(=O)NC1C(O)CC(OP(=O)(O)OC[C@H]2OC(n3ccc(N)nc3=O)[C@H](O)[C@@H]2O)(C(=O)O)OC1[C@H](O)C(O)CO (stereo not given in full)', 'n');

Attention now turns to another entry.
Challenge: Lab note: confirm whether the reported Ratio for this compound is below 10, equality not counting. compound: [N-]=[N+]=Nc1ccc(C(=O)NCC(=O)NC2C(O)CC(OP(=O)(O)OC[C@H]3OC(n4ccc(N)nc4=O)[C@H](O)[C@@H]3O)(C(=O)O)OC2[C@H](O)[C@H](O)CO)cc1 (stereo not given in full)
Response given: y
